SYSTEM_NAME: Syk kinase (Homo sapiens)
Construct: purchased Upstate, Lake Placid NY
PROTOCOL_NOTES: Syk kinase biochemical fluorescence polarization assay
CONDITION: isolated Syk kinase, fluorescence polarization, 4 uM ATP
Please use MET for IC50 under 0.1 µM and NOT MET for everything else, ties included.

As a guide, the following entries are already answered.
MOLECULE: CNC(=O)COc1cccc(Nc2ncc(C(F)(F)F)c(Nc3cccc(O)c3)n2)c1
CLASS_ASSIGNMENT: MET
--
MOLECULE: O=C1Nc2cc(Nc3nc(Nc4ccc5cn[nH]c5c4)ncc3F)ccc2OC1(F)F
CLASS_ASSIGNMENT: MET
--
MOLECULE: CCOc1ccc(Nc2ncc(F)c(Nc3ccc4c(n3)NC(=O)CO4)n2)cc1
CLASS_ASSIGNMENT: NOT MET
--
MOLECULE: CCOC(=O)COc1cccc(Nc2ncc(C(=O)OCC)c(Nc3ccc4c(c3)OCCO4)n2)c1
CLASS_ASSIGNMENT: NOT MET

Exercise: Threshold test, IC50 < 0.1 µM: `Cc1cccc(C)c1Nc1ncc(F)c(Nc2ccc3c(c2)NC(=O)C(C)(C)O3)n1`
Key: NOT MET

Exercise: Lab log: compare recorded IC50 with 0.1 µM; is it strictly lower for `Cn1ncc2ccc(Nc3ncc(F)c(Nc4ccc(Cl)c(Cl)c4)n3)cc21` ?
Key: NOT MET

Exercise: Given the entry `COc1cc(Nc2ncc(F)c(Nc3ccc4c(c3)NC(=O)C(C)(C)O4)n2)cc(OC)c1` , would its reported IC50 be below 0.1 µM?
Key: NOT MET

Exercise: Decide: IC50 of `COc1ccc(Nc2ncc(F)c(Nc3ccc4c(n3)NC(=O)C(C)(C)O4)n2)cc1Cl` strictly below 0.1 µM?
Key: NOT MET

Exercise: Just wondering, is IC50 of `Cc1cc(C)cc(Nc2ncc(F)c(Nc3ccc4c(n3)NC(=O)CO4)n2)c1` below 0.1 µM?
Key: NOT MET

Exercise: Please state whether IC50 is below 0.1 µM for `COc1ccc(Nc2ncc(F)c(Nc3ccc4c(c3)NC(=O)[C@H](C)O4)n2)cc1Cl`
Key: NOT MET

Exercise: Hello, I'm reviewing records and need to know if IC50 of `CCOC(=O)CCn1ncc2cc(Nc3ncc(F)c(Nc4ccc5c(c4)NC(=O)C(C)(C)O5)n3)ccc21` is below 0.1 µM. Could you check?
Key: NOT MET

Exercise: Quick check: IC50 of `CC1(C)C(=O)NC(=O)c2cc(Nc3nc(Nc4ccc5cn[nH]c5c4)ncc3F)ccc21` under 0.1 µM?
Key: NOT MET

Exercise: Here's an entry: `COc1cc(Nc2ncc(F)c(Nc3ccc4c(n3)NC(=O)C(C)(C)O4)n2)cc(OC)c1` . Is its IC50 below 0.1 µM?
Key: NOT MET

Exercise: Does `CC(=O)N1CCN(c2ccc(Nc3ncc(F)c(NC4CC4)n3)cc2)CC1` have IC50 strictly under 0.1 µM?
Key: NOT MET

Exercise: Here's an entry: `CN(C)CCOc1ccc(Nc2ncc(F)c(Nc3cccc(O)c3)n2)cc1` . Is its IC50 below 0.1 µM?
Key: NOT MET

Exercise: Consider the molecule `O=C1Nc2cc(Nc3ncc(F)c(Nc4ccc5c(c4)NC(=O)C(F)(F)O5)n3)ccc2OC1(F)F` . Is its IC50 strictly less than 0.1 µM?
Key: NOT MET

Exercise: # check: IC50 < 0.1 µM for `CC(=O)N1CCN(c2ccc(Nc3ncc(F)c(Nc4ccc5c(n4)NC(=O)C(C)(C)O5)n3)cc2)CC1`
Key: NOT MET

Exercise: Is the reported IC50 for `CC1(C)Oc2ccc(Nc3nc(Nc4cc(Cl)cc(Cl)c4)ncc3F)nc2NC1=O` strictly below 0.1 µM?
Key: NOT MET

Exercise: Given `CC1(C)Oc2ccc(Nc3nc(Nc4cc(Cl)cc(Cl)c4)ncc3F)cc2NC1=O` , is recorded IC50 strictly lower than 0.1 µM?
Key: NOT MET

Exercise: Hello, I'm reviewing records and need to know if IC50 of `CNC(=O)Cn1ncc2cc(Nc3ncc(F)c(Nc4ccc5c(c4)NC(=O)C(C)(C)O5)n3)ccc21` is below 0.1 µM. Could you check?
Key: NOT MET
